Test: Therapeutic index, measured by whole cell assay.
Conditions: read-out: Therapeutic index
selectivity ratio overview
# respond with the number and nothing more

Past entries and their recorded results:
MOLECULE	NUMBER
C[C@]12CC[C@H]3[C@@H](CC[C@@]45O[C@@H]4C(=O)C(C(N)=O)C[C@]35C)[C@@H]1CC[C@@H]2O (stereo partly specified)	6.5
COc1ccc(NC(=O)C2C[C@]3(C)CCCC[C@]34O[C@@H]4C2=O)cc1 (stereo partly specified)	1.3

Give the measured selectivity ratio for C[C@]12CCC3C(CC[C@@]45O[C@@H]4C(=O)C(S(C)(=O)=O)C[C@]35C)C1CC[C@@H]2O (stereo partly specified) 3.9

Tell me measured selectivity ratio for C[C@]12CC[C@H]3[C@@H](CC[C@@]45O[C@@H]4C(=O)C(S(=O)(=O)c4ccccc4)C[C@]35C)[C@@H]1CC[C@@H]2O (stereo partly specified) please. 2.6

Please report the measured selectivity ratio for C[C@]12CCCC[C@@]13O[C@H]3C(=O)C(C(N)=O)C2 (stereo partly specified) 2.6

Identify selectivity ratio associated with the molecule CC(=O)O[C@H]1CC[C@H]2[C@@H]3CC[C@@]45O[C@@H]4C(=O)C(S(C)(=O)=O)C[C@]5(C)[C@H]3CC[C@]12C (stereo partly specified) 4.3

Identify the reported selectivity ratio for the following entry. COc1ccc(NC(=O)C2C[C@]3(C)CCCC[C@@]3(O)[C@@H](Cl)C2=O)cc1 (stereo partly specified) 4.2

State its selectivity ratio: C[C@@]12CCCC[C@]13O[C@@H]3C(=O)C(C(N)=O)C2 (stereo partly specified) 4.1

Kindly indicate its recorded selectivity ratio. Item: COc1ccc(NC(=O)C2CC(C)(C)C3OC3C2=O)cc1 (stereo unspecified) 1.2

Assign selectivity ratio to the following record: C[C@@]12CCCC[C@@]1(O)[C@@H](Cl)C(=O)C(C(N)=O)C2 (stereo partly specified) 2

Find the measured selectivity ratio of C[C@]12CCCC[C@@]13O[C@H]3C(=O)C(C#N)C2 (stereo partly specified) and report it. 3.8

###

Assay: Therapeutic index, measured by whole cell assay.
Settings: read-out: Therapeutic index
# key: entry, value: selectivity ratio
Give your answer as a number; write no unit.

COMPOUND	selectivity ratio
COC(=O)C1C[C@]2(C)[C@H]3CC[C@]4(C)[C@@H](O)CC[C@H]4[C@@H]3CC[C@]23O[C@@H]3C1=O (stereo partly drawn)	4.5
CC(=O)O[C@H]1CC[C@H]2[C@@H]3CC[C@@]45O[C@@H]4C(=O)C(C(N)=O)C[C@]5(C)[C@H]3CC[C@]12C (stereo partly drawn)	1.6
CC1(C)CC(C(=O)Nc2c(Cl)cccc2Cl)C(=O)C2OC21 (stereo not drawn)	2.3
C[C@@]12CCCC[C@]13O[C@@H]3C(=O)C(C(=O)Nc1ccccc1)C2 (stereo partly drawn)	3.8
C[C@@]12CCCC[C@@]1(O)[C@@H](Cl)C(=O)C(C(=O)Nc1ccccc1)C2 (stereo partly drawn)	1.9

Tell us which selectivity ratio value is on record for CC1(C)CC(C(=O)Nc2ccccc2)C(=O)C2OC21 (stereo not drawn) 1.4

Kindly indicate its recorded selectivity ratio. Item: COC(=O)C1C[C@]2(C)[C@H]3CC[C@]4(C)[C@@H](OC(C)=O)CC[C@H]4[C@@H]3CC[C@]23O[C@@H]3C1=O (stereo partly drawn) 3.1

Consider the compound C[C@@]12CCCC[C@]13O[C@@H]3C(=O)C(C#N)C2 (stereo partly drawn) . State its measured selectivity ratio. 3
